Assay: Oral bioavailability in Sprague-Dawley rat model of bleomycin-induced pulmonary fibrosis at 5 mg/kg by LC-MS/MS analysis
Assay type: ADME, organism-based
Settings: in vivo
Please respond with reported bioavailability for every item in the list.
Give the value in % but do not write % after it.

Entry Cc1cc(=O)n(-c2ccc(N3CCC(Cc4ccc(Cl)c(F)c4)CC3)c(Cl)c2)c(C)n1 — recorded bioavailability = 105

Entry Cc1cc(=O)n(-c2ccc(N3CCOCC3)c(F)c2)c(C)n1 — recorded bioavailability = 92

* * *

Test: Half life in rat liver microsomes by LC-MS/MS analysis
Format: ADME, Microsome
quantity_measured: half-life (h)
Give the value in h but do not write h after it.

Entry Cc1cc(=O)n(-c2ccc(N3CCC(Cc4ccc(Cl)c(F)c4)CC3)c(Cl)c2)c(C)n1 — recorded half-life = 1.71

Taken from ChEMBL document CHEMBL5136958.
